Catalogue of compounds with associated growth
System: SK-MEL-2 melanoma
Assay: NCI-60 one-dose screen, 48 h (100 = growth as untreated, 0 = no growth, -100 = all killed)
Conditions: 10 µM unless noted
The panel holds about 83,000 compounds, 20% with a hit somewhere; the sample as a whole holds those more often.
Reported Property: growth (%)

[
  {
    "Compound": "O=c1oc2c(C(F)(F)F)cccc2cc1-c1csc(Nc2ccc(OCCF)cc2)n1",
    "Target Or Test System": "SK-MEL-2 melanoma",
    "Reported Property": "growth",
    "Result": 18
  },
  {
    "Compound": "Clc1ccc2c(NCCCCNc3nc(N4CCOCC4)nc4ccccc34)ccnc2c1",
    "Target Or Test System": "SK-MEL-2 melanoma",
    "Reported Property": "growth",
    "Result": 103
  },
  {
    "Compound": "O=C(N(c1ccccc1)c1ccccc1)n1ccc2nc(Cl)nc(Cl)c21",
    "Target Or Test System": "SK-MEL-2 melanoma",
    "Reported Property": "growth",
    "Result": 58.6
  },
  {
    "Compound": "O=C1c2cccc3cccc(c23)C(=O)N1CCCCN1CCN(CCCCOc2ccc(-c3nc4ccc(N5CCOCC5)cc4[nH]3)cc2)CC1",
    "Target Or Test System": "SK-MEL-2 melanoma",
    "Reported Property": "growth",
    "Result": 90.4
  },
  {
    "Compound": "O=C1c2cc3c(cc2-c2c1c1cc(F)c(F)cc1c(=O)n2CCCn1ccnc1)OCO3",
    "Target Or Test System": "SK-MEL-2 melanoma",
    "Reported Property": "growth",
    "Result": -11.2
  },
  {
    "Compound": "COc1cccc(-c2nc3sccn3c2-c2ccnc(NCCNS(=O)(=O)c3ccc(F)cc3)c2)c1",
    "Target Or Test System": "SK-MEL-2 melanoma",
    "Reported Property": "growth",
    "Result": 21.3
  },
  {
    "Compound": "CC(=O)O[C@H]1[C@@H]2OC(=O)C(CSc3ccccc3)[C@@H]2C[C@H]2O[C@]2(C)CC/C=C(\\C)CCC[C@@H]1C (some centres not stated)",
    "Target Or Test System": "SK-MEL-2 melanoma",
    "Reported Property": "growth",
    "Result": 35.6
  }
]

###

Each entry below carries its reported growth.
System: OVCAR-5 ovarian
Experiment: NCI-60 one-dose screen, 48 h (100 = growth as untreated, 0 = no growth, -100 = all killed)
Conditions: 10 µM unless noted
About 83,000 compounds went through this panel and 20% of them were active in at least one assay; those are over-represented in the sample as a whole. Active and inactive are the calls of the source. The calls were made as follows: active = growth percent below 10; inactive = the rest.
Reported Property: growth

[
  {
    "Compound": "Cn1nc(N)c2cc([C@@H]3Nc4ccc5[nH]ncc5c4[C@H]4C5CCC(C5)[C@@H]34)ccc21 (stereo partly specified)",
    "Target Or Test System": "OVCAR-5 ovarian",
    "Result": "35.1% (inactive)"
  },
  {
    "Compound": "COC(=O)c1ccc(NC(=O)c2ccc(-c3cccc([N+](=O)[O-])c3)o2)cc1",
    "Target Or Test System": "OVCAR-5 ovarian",
    "Result": "109% (inactive)"
  },
  {
    "Compound": "N#Cc1nnn(-c2ccc(S(N)(=O)=O)cc2)c1NC(=O)CCl",
    "Target Or Test System": "OVCAR-5 ovarian",
    "Result": "96.6% (inactive)"
  },
  {
    "Compound": "O=C1/C(=C/c2ccccc2O)N=C2SCCCN12",
    "Target Or Test System": "OVCAR-5 ovarian",
    "Result": "91.7% (inactive)"
  },
  {
    "Compound": "O=S(=O)(Nc1ccc(NS(=O)(=O)c2ccccc2)c(Cl)c1)c1ccccc1",
    "Target Or Test System": "OVCAR-5 ovarian",
    "Result": "108% (inactive)"
  },
  {
    "Compound": "COc1cc2nc(N3CCCC3)nc(NCCc3ccccc3)c2cc1OC",
    "Target Or Test System": "OVCAR-5 ovarian",
    "Result": "39.5% (inactive)"
  },
  {
    "Compound": "C#CC(F)(F)[C@]1(O)CC[C@H]2[C@@H]3CCC4=CC(=O)CCC4=C3[C@@H](c3ccc(C(C)=O)cc3)C[C@@]21C",
    "Target Or Test System": "OVCAR-5 ovarian",
    "Result": "84.4% (inactive)"
  },
  {
    "Compound": "O=C1NC(=S)NC(=O)C1CC(=O)n1c(-c2ccccc2)nc2ccccc21",
    "Target Or Test System": "OVCAR-5 ovarian",
    "Result": "99.5% (inactive)"
  },
  {
    "Compound": "COc1cc2c(cc1-c1c(C)noc1C)ncc1nc(-c3ccccn3)n([C@H](C)COC(F)F)c12",
    "Target Or Test System": "OVCAR-5 ovarian",
    "Result": "76.6% (inactive)"
  },
  {
    "Compound": "O=C1/C(=C/c2ccc3c(c2)OCO3)SC(=S)N1CCc1ccc(O)cc1",
    "Target Or Test System": "OVCAR-5 ovarian",
    "Result": "111% (inactive)"
  },
  {
    "Compound": "CCc1nnc(CNc2ccc(Cl)cc2)o1",
    "Target Or Test System": "OVCAR-5 ovarian",
    "Result": "95.6% (inactive)"
  },
  {
    "Compound": "CC(=O)O[C@H]1[C@@H]2OC(=O)C(CSc3ccccc3)[C@@H]2C[C@H]2O[C@]2(C)CC/C=C(\\C)CCC[C@@H]1C (stereo partly specified)",
    "Target Or Test System": "OVCAR-5 ovarian",
    "Result": "83.6% (inactive)"
  },
  {
    "Compound": "COc1ccc(N=Nc2nccs2)c(O)c1",
    "Target Or Test System": "OVCAR-5 ovarian",
    "Result": "87.2% (inactive)"
  },
  {
    "Compound": "CN(C)c1ccc(N=Nc2ccc(Br)cn2)c(O)c1",
    "Target Or Test System": "OVCAR-5 ovarian",
    "Result": "59.6% (inactive)"
  },
  {
    "Compound": "CC(=O)O[C@H]1CC[C@]2(C)[C@H]3CC=C4[C@@H]5CC(C)(C)CC[C@]5(C(=O)NCCNCCN)CC[C@@]4(C)[C@]3(C)CC[C@H]2C1(C)C",
    "Target Or Test System": "OVCAR-5 ovarian",
    "Result": "-87.7% (active)"
  },
  {
    "Compound": "O=C(CN(C(=O)Cn1c(=O)n2nnnc2c2ccccc21)c1ccccc1C(F)(F)F)Nc1ccc(C(F)(F)F)cc1",
    "Target Or Test System": "OVCAR-5 ovarian",
    "Result": "106% (inactive)"
  }
]

###

System: SN12C renal
Assay: NCI-60 one-dose screen, 48 h (100 = growth as untreated, 0 = no growth, -100 = all killed)
Settings: 10 µM unless noted
This is part of a sample that, as a whole, favours compounds with a hit. Of some 83,000 tested, about 20% had one in any assay.
Listing: growth of selected molecules
Reported Property: growth (%)

[
  {
    "Molecule": "COc1cc(/C=C/c2cc(/C=C/c3ccc(O)c(OC)c3)n(-c3c(C)cccc3C)c(=O)n2)ccc1O",
    "Result": 11.6
  },
  {
    "Molecule": "O=C1Nc2c(ccc(Cl)c2Cl)/C1=C\\c1cc(C(F)(F)F)cc(C(F)(F)F)c1",
    "Result": 14.2
  },
  {
    "Molecule": "CSc1nc(NCCO)c(C#N)c(-c2cccc([N+](=O)[O-])c2)n1",
    "Result": 90.4
  },
  {
    "Molecule": "OC(COc1cccc2ccccc12)CN1CCN(c2ccccc2Cl)CC1 (centres undefined)",
    "Result": 105
  },
  {
    "Molecule": "COc1ccc(/C=C(\\C#N)C(=O)Nc2cccc(Nc3nc(SC)nc(-c4cccc([N+](=O)[O-])c4)c3C#N)c2)cc1OC",
    "Result": 96.5
  },
  {
    "Molecule": "COc1cccc(-c2nc3sccn3c2-c2ccnc(NCCCNS(=O)(=O)c3c(Cl)cccc3Cl)c2)c1",
    "Result": 60.9
  },
  {
    "Molecule": "COc1ccc(/C=C2\\Oc3cc(OCCCCN4CCCC4)ccc3C2=O)cc1",
    "Result": 90.3
  },
  {
    "Molecule": "CN(C)CCCNc1c2ccccc2nc2ccccc12",
    "Result": 95.8
  },
  {
    "Molecule": "CCN1CCC2(CC1)NC(=O)c1c(c3ccc(Cl)c(Cl)c3n1C)C2C#N (centres undefined)",
    "Result": 49.4
  }
]

All values here come from PubChem BioAssay (NCI).
